Recorded measurements of IC50, one per entry
Tested on: 186277-243-T-J2-PDC multi-cell spheroid viability;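 also: spheroids exposed to compounds for seven days before viability reading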
Assay: Anticancer human tumor 186277-243-T-J2-PDC patient-derived colon adenocarcinoma cell line growth inhibition [PI3K]
Settings: curve of first compound; second compound 0.0316 µM
Assay Metric: IC50

[[record]]
compound = "Cn1ncc(Cl)c1-c1cc(C(=O)NC(CN)Cc2cccc(F)c2)sc1Cl (configuration not stated) + COc1c(OCCCN2CCOCC2)ccc2c3n(c(=NC(=O)c4cnc(N)nc4)nc12)CCN3"
meas_value = "46.8 nM"

[[record]]
compound = "CC1(C)CCC(CN2CCN(c3ccc(C(=O)NS(=O)(=O)c4ccc(NCC5CCOCC5)c([N+](=O)[O-])c4)c(Oc4cnc5[nH]ccc5c4)c3)CC2)=C(c2ccc(Cl)cc2)C1 + Cc1nc(NC(=O)N2CCCC2C(N)=O)sc1-c1ccnc(C(C)(C)C(F)(F)F)c1"
meas_value = "4680 nM"

[[record]]
compound = "CC(Cn1ccc(-c2ccc(C#N)c(Cl)c2)n1)NC(=O)c1cc(C(C)O)[nH]n1 (configuration not stated) + Cc1nc(NC(=O)N2CCCC2C(N)=O)sc1-c1ccnc(C(C)(C)C(F)(F)F)c1"
meas_value = "> 10000 nM"

[[record]]
compound = "CC(C)n1nc(-c2ccc3oc(N)nc3c2)c2c(N)ncnc21 + COc1c(OCCCN2CCOCC2)ccc2c3n(c(=NC(=O)c4cnc(N)nc4)nc12)CCN3"
meas_value = "5.38 nM"

[[record]]
compound = "CCCS(=O)(=O)Nc1ccc(F)c(C(=O)c2c[nH]c3ncc(-c4ccc(Cl)cc4)cc23)c1F + COc1c(OCCCN2CCOCC2)ccc2c3n(c(=NC(=O)c4cnc(N)nc4)nc12)CCN3"
meas_value = "5160 nM"

[[record]]
compound = "C#Cc1c(F)ccc2cc(O)cc(-c3ncc4c(N5CC6CCC(C5)N6)nc(OCC56CCCN5CC(F)C6)nc4c3F)c12 (configuration not stated) + CC(Nc1ncnc2nc[nH]c12)c1cc2cccc(Cl)c2c(=O)n1-c1ccccc1"
meas_value = "94.1 nM"

[[record]]
compound = "Cn1ncc(Cl)c1-c1cc(C(=O)NC(CN)Cc2cccc(F)c2)sc1Cl (configuration not stated) + CC(Nc1ncnc2nc[nH]c12)c1cc2cccc(Cl)c2c(=O)n1-c1ccccc1"
meas_value = "1500 nM"

